Biological target: recombinant guanylate cyclase reporter cell line (Rattus norvegicus, UniProt P20595)
Construct: expressed in transfected cells; host or cells: CHO reporter cell line
Sequence (P20595 1-619): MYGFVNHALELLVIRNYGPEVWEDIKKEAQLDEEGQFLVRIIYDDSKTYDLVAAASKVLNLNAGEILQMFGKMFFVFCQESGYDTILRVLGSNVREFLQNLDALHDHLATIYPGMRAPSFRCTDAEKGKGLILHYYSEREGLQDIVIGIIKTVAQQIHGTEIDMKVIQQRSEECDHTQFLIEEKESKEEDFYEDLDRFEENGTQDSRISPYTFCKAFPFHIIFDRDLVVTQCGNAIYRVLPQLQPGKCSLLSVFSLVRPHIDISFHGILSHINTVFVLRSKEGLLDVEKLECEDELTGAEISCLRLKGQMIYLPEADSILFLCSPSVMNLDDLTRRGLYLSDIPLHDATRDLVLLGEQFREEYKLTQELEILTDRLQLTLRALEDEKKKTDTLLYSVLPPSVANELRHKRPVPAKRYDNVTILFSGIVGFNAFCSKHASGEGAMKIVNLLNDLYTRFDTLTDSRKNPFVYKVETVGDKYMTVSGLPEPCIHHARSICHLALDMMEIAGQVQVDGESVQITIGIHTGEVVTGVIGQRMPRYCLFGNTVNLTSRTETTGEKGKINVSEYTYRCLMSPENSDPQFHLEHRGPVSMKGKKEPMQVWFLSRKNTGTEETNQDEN
Sequence (P19686 1-690 partner): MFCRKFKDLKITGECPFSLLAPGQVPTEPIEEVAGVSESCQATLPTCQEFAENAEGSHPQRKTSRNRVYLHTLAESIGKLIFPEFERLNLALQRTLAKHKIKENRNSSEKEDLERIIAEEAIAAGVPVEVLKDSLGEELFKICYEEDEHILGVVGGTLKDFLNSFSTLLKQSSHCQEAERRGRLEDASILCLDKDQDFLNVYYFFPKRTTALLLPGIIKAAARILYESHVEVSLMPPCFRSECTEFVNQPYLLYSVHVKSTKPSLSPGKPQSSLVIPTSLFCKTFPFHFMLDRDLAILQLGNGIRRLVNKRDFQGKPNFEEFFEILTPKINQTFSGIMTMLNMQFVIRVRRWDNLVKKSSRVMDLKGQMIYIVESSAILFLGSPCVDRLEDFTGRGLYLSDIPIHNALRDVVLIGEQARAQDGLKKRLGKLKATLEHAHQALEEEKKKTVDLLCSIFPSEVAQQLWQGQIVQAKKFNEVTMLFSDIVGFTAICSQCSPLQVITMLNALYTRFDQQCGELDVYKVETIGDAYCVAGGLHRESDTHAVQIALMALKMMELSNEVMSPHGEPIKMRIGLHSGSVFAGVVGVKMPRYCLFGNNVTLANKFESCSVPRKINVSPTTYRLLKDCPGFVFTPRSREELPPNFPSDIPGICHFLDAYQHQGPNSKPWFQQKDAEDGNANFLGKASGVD
Test: sGC-activating activity in the CHO reporter cell in vitro
Format: cell-based
Reported MEC (minimum effective concentration), sGC-activating activity in the CHO reporter cell values for the following compounds.
measure-name: MEC (minimum effective concentration), sGC-activating activity in the CHO reporter cell (nM)

{"columns": ["compound", "recorded-number"],
 "data": [
  ["O=C(O)CCc1cccc(NC(=O)C(c2ccc(Cn3nnc4ccccc4c3=O)cc2)C2CCCC2)c1 (racemic) [Example 21]", 30],
  ["CC(C)C(C(=O)Nc1ccc(CCC(=O)O)cc1)c1ccc(CN2N=C(c3ccccc3)OCC2=O)cc1 (single isomer, unassigned) [Example 106]", 10],
  ["Cc1c(CCC(=O)O)cccc1NC(=O)C(c1ccc(Cn2nnc3ccccc3c2=O)cc1)C1CCCC1 (racemic) [Example 29]", 30],
  ["C[C@@H]([C@@H](C(=O)Nc1cccc(CC2(C(=O)O)CC2)c1)c1ccc(CN2Cc3c(F)cccc3C2=O)cc1)C(F)(F)F [Example 220]", 0.3],
  ["O=C(Nc1cccc(CC2(C(=O)O)CC2)c1)C(c1ccc(CN2N=C(c3ccccc3)OCC2=O)cc1)C1CCC(F)(F)C1 (single isomer, unassigned) [Example 241]", 3],
  ["O=C(O)c1ccc(CNC(=O)C(c2ccc(CN3N=C(c4ccccc4)OCC3=O)cc2)C2CCCC2)cc1 (single isomer, unassigned; ent-4) [Example 38]", 30],
  ["CCC(C)C(C(=O)Nc1cccc(CCC(=O)O)c1C)c1ccc(CN2N=C(c3ccccc3)OCC2=O)cc1 (single isomer, unassigned) [Example 77]", 1],
  ["O=C(Nc1cccc(CC2(C(=O)O)CC2)c1)C(c1ccc(Cn2nc(-c3ccccc3)ccc2=O)cc1)C1CCCC1 (stereo not shown) [Example 156]", 3],
  ["O=C(O)CCc1cccc(NC(=O)C(c2ccc(CN3N=C(c4ccccc4)OCC3=O)cc2)C2CCCC2)c1 (single isomer, unassigned) [Example 103]", 10],
  ["O=C(O)CCc1cccc(NC(=O)C(c2ccc(Cn3nc(-c4ccccc4)oc3=O)cc2)C2CCCC2)c1 (racemic) [Example 22]", 300],
  ["CCC(C)C(C(=O)Nc1cccc2c1CC(C)(C(=O)O)C2)c1ccc(CN2N=C(c3ccccc3)OCC2=O)cc1 (single isomer, unassigned) [Example 86]", 1],
  ["C[C@H]([C@H](C(=O)Nc1cccc(CC2(C(=O)O)CC2)c1)c1ccc(CN2Cc3ccccc3C2=O)cc1)C(F)(F)F [Example 207]", 3],
  ["O=C(O)c1ccc(CNC(=O)C(c2ccc(Cn3nc(-c4ccc(Cl)cc4)c4ccccc4c3=O)cc2)C2CCCC2)cc1 (racemic) [Example 1]", 10]
]}

All figures here come from patent US8987256B2.
